Values were extracted from ChEMBL document CHEMBL1201862.

# System: M19-MEL
# method.description: NCI tumour cell line growth inhibition, 48 h
The source made the active and inactive calls. Cut-off read from the data, not from the text of the source: active = GI50 up to about 1.1 µM and inactive = higher.
Classes to choose from: active, inactive

molecule	assigned.class
N=c1c2ccccc2sc2nc3ccccc3n12	inactive
COc1cc(O)c2c(c1C)C(C)(O)c1c(C)coc1C2=O (configuration not stated)	inactive
C1OC1CN1CCN(CC2CO2)CC1 (configuration not stated)	inactive
COC(=O)c1cc2ccccc2c2nc3ccccc3c(Cl)c12	inactive
COC(=O)C1=C(C(=O)OC)C23CC1C1C(C(=O)OC)=C(C(=O)OC)C12C1C=CC3C2C(=O)OC(=O)C21 (configuration not stated)	inactive
Cc1ccccc1Cn1nc2ccccc2cc1=O	inactive

Which outcome did this test record for the molecule C/C(=C1/CCCC2(N=NCC2c2ccccc2)C1=O)c1ccccc1 (configuration not stated) ? inactive

Which outcome did this test record for the molecule COc1ccc(C2[C@@H](Cl)C(=O)N2c2ccc(OC)cc2)cc1 (some centres not stated) ? inactive

Which outcome did this test record for the molecule C[C@@]12[Se]c3ccccc3[C@]1(C)[Se]c1ccccc12 ? inactive
